System: Haemonchus contortus
test.protocol: Method A: development of L1 Haemonchus contortus larvae in microtitre plate
condition.context: 96 h, read-out: median EC50
pEC50: −log10 of the molar value.
assay.metric: pEC50

IN: Data request, read-out pEC50, for CC(C)C[C@H]1C(=O)O[C@H](Cc2ccc(C3CCOCC3)cc2)C(=O)N(C)[C@@H](CC(C)C)C(=O)O[C@H](C)C(=O)N(C)[C@@H](CC(C)C)C(=O)O[C@H](Cc2ccc(C3CCOCC3)cc2)C(=O)N(C)[C@@H](CC(C)C)C(=O)O[C@H](C)C(=O)N1C [Compound 7-27]
OUT: 5.00 to 6.00

* * *

For each record, write down the corresponding EC50.
Test system: Haemonchus contortus
test.protocol: Method A: development of L1 Haemonchus contortus larvae in microtitre plate
condition.context: 96 h, read-out: median EC50

Examples with answers:
{"molecule": "C[C@H]1OC(=O)[C@H](CC(C)(C)C)N(C)C(=O)[C@@H](Cc2ccc(OC(F)(F)F)cc2)OC(=O)[C@H](CC(C)(C)F)N(C)C(=O)[C@@H](C)OC(=O)[C@H](CC(C)(C)C)N(C)C(=O)[C@@H](Cc2ccc(OC(F)(F)F)cc2)OC(=O)[C@H](CC(C)(C)F)N(C)C1=O [Compound 5-32]", "measured": "0.1 to 1 µM"}
{"molecule": "CC(C)C[C@H]1C(=O)O[C@H](C)C(=O)N(C)[C@@H](CC(C)(C)F)C(=O)O[C@H](Cc2ccc(N3CCOCC3)cc2)C(=O)N(C)[C@@H](CC(C)C)C(=O)O[C@H](C)C(=O)N(C)[C@@H](CC(C)(C)F)C(=O)O[C@H](Cc2ccc(N3CCOCC3)cc2)C(=O)N1C [Compound 6-18]", "measured": "0.1 to 1 µM"}
{"molecule": "CC(C)C[C@H]1C(=O)O[C@H](C)C(=O)N(C)[C@@H](CC(C)(C)F)C(=O)O[C@H](Cc2ccc(C3CCOCC3)cc2)C(=O)N(C)[C@@H](CC(C)C)C(=O)O[C@H](C)C(=O)N(C)[C@@H](CC(C)(C)F)C(=O)O[C@H](Cc2ccc(C3CCOCC3)cc2)C(=O)N1C [Compound 7-18]", "measured": "1 to 10 µM"}

Provide each entry's EC50 from the list below.
1. C[C@H]1OC(=O)[C@H](CC(C)(C)C)N(C)C(=O)[C@@H](Cc2ccc(C3CCOCC3)cc2)OC(=O)[C@H](CC(C)(C)F)N(C)C(=O)[C@@H](C)OC(=O)[C@H](CC(C)(C)C)N(C)C(=O)[C@@H](Cc2ccc(C3CCOCC3)cc2)OC(=O)[C@H](CC(C)(C)F)N(C)C1=O [Compound 7-32]
2. CC(C)C[C@H]1C(=O)O[C@H](C)C(=O)N(C)[C@@H](CC(C)(C)F)C(=O)O[C@H](Cc2ccc(C(F)(F)F)cc2)C(=O)N(C)[C@@H](CC(C)C)C(=O)O[C@H](C)C(=O)N(C)[C@@H](CC(C)(C)F)C(=O)O[C@H](Cc2ccc(C(F)(F)F)cc2)C(=O)N1C [Compound 4-18]

OUT:
1: < 0.1 µM; 2: 0.1 to 1 µM

The origin of these recorded values is patent US12286455B2.
